The entries below come with measured Relative Activity % values attached.
- measurementTarget: human κ opioid receptor (OPRK1) (Homo sapiens, UniProt P41145)
- Construct: expressed in transfected cells; host or cells: CHO-K1
- Sequence (P41145 whole entry): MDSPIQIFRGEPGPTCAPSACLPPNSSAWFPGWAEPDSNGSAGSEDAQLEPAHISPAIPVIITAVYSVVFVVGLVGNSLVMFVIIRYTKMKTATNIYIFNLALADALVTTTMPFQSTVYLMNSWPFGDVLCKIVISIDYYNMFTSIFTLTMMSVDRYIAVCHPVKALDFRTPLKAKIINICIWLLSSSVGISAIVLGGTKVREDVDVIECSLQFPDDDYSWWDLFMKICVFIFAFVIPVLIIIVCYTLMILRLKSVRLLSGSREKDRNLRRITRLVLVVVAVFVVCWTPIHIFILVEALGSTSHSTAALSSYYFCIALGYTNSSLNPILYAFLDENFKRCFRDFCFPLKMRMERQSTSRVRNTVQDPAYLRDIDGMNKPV
- testMethodNotes: Determination of activities of κ receptor agonists: inhibition of forskolin-stimulated cAMP release (HTRF) in stably transfected CHO-K1 cells
- Format: cell-based
- statedConditions: relative to Difelikefalin = 100.0
Bridge positions count the residues as written; N and C are the ends. Square brackets hold non-standard residues; d marks the D form. Side chains are listed from the residue outwards. Peptide text beside a SMILES is read from it. I, II: the chains in the order shown. * marks the point of attachment. X12 = CCOc1ccc(C[C@@H](NC(=O)[C@H](N)Cc2ccccc2)C(=O)*)cc1; Piperidinyl(4-NH2,4-CONH2) = NC(=O)C1(N)CCN(*)CC1; X1 = NCCCC[C@@H](NC(=O)C1(N)CCN(*)CC1)C(N)=O; X6 = NCCCC[C@H](NC(=O)C1(N)CCN(*)CC1)C(N)=O; Trifluoroethyl = FC(F)(F)C*; Api = NC1(C(=O)O)CCNCC1
observable: Relative Activity %

>>> reading("CC(C)C[C@@H](NC(=O)[C@@H](Cc1ccc(Cl)cc1)NC(=O)[C@H](N)Cc1ccccc1)C(=O)N[C@H](CCCCN)C(=O)N1CCC(N)(C(=O)O)CC1 [Compound 110]")
"408.6%"
>>> reading("CC(C)C[C@@H](NC(=O)[C@@H](Cc1ccc(I)cc1)NC(=O)[C@H](N)Cc1ccccc1)C(=O)N[C@H](CCCCN)C(=O)N1CCC(N)(C(=O)N[C@@H](CCCCN)C(=O)O)CC1 [Compound 124]")
"1088.2%"
>>> reading("CCOc1ccc(C[C@@H](NC(=O)[C@H](N)Cc2ccccc2)C(=O)N[C@H](CC(C)C)C(=O)N[C@H](CCCCN)C(=O)N2CCC(N)(C(=O)N[C@@H](CCCCN)C(=O)N[C@@H](CCCCN)C(=O)N[C@@H](CCCCN)C(=O)N[C@@H](CCCCN)C(=O)N[C@@H](CCCCN)C(N)=O)CC2)cc1 [Compound 11] (H-[Api]([dK-dL-X12])KKKKK-NH2; N-terminus assumed)")
"1137.1%"
>>> reading("CC(C)C[C@@H](NC(=O)[C@@H](Cc1ccc(Cl)cc1)NC(=O)[C@H](N)Cc1ccccc1)C(=O)N[C@H](CCCCN)C(=O)N1CCC(N)(C(=O)N[C@@H](CCCCN)C(N)=O)CC1 [Compound 111]")
"1165.5%"
>>> reading("CC(C)C[C@@H](NC(=O)[C@@H](Cc1ccc(Br)cc1)NC(=O)[C@H](N)Cc1ccccc1)C(=O)N[C@H](CCCCN)C(=O)N1CCC(N)(C(=O)N[C@H](CCCCN)C(N)=O)CC1 [Compound 119]")
"987.3%"
>>> reading("Cc1ccc(C[C@@H](NC(=O)[C@H](N)Cc2ccccc2)C(=O)N[C@H](CC(C)C)C(=O)N[C@H](CCCCN)C(=O)N2CCC(N)(C(=O)N[C@@H](CCCCN)C(=O)O)CC2)cc1 [Compound 128]")
"380.2%"
>>> reading("CCc1ccc(C[C@@H](NC(=O)[C@H](N)Cc2ccccc2)C(=O)N[C@H](CC(C)C)C(=O)N[C@H](CCCCN)C(=O)N2CCC(N)(C(=O)N[C@H](CCCCN)C(N)=O)CC2)cc1 [Compound 133]")
"461.7%"
>>> reading("CCOc1ccc(C[C@@H](NC(=O)[C@H](N)Cc2ccccc2)C(=O)N[C@H](CC(C)C)C(=O)N[C@H](CCCCN)C(=O)N2CCC(N)(C(=O)N[C@H](CCCCN)C(=O)N[C@H](CCCCN)C(=O)N[C@H](CCCCN)C(N)=O)CC2)cc1 [Compound 19] (I: H-[Api][dK][dK][dK]-NH2 / II: H-[dF][dY](Et)[dL][dK]; amide I:1-II:C; N-terminus assumed)")
"1267.6%"
>>> reading("CCOc1ccc(C[C@@H](NC(=O)[C@H](N)Cc2ccccc2)C(=O)N[C@H](CC(C)C)C(=O)N[C@H](CCCCN)C(=O)N2CCC(N)(C(=O)N[C@H](CCCCN)C(=O)N[C@H](CCCCN)C(=O)N[C@H](CCCCN)C(=O)N[C@H](CCCCN)C(=O)N[C@H](CCCCN)C(=O)N[C@H](CCCCN)C(N)=O)CC2)cc1 [Compound 25] (H-[Api]([dK-dL-X12])[dK][dK][dK][dK][dK][dK]-NH2; N-terminus assumed)")
"887.7%"
>>> reading("CCOc1ccc(C[C@@H](NC(=O)[C@H](N)Cc2ccccc2)C(=O)N[C@H](CC(C)C)C(=O)N[C@H](CCCCN)C(=O)N2CCC(N)(C(=O)N[C@@H](CCCCN)C(=O)N[C@@H](CCCCN)C(=O)N[C@@H](CCCCN)C(=O)N[C@@H](CCCCN)C(=O)O)CC2)cc1 [Compound 10] (H-[Api]([dK-dL-X12])KKKK-OH; N-terminus assumed)")
"1311.4%"
>>> reading("CCOc1ccc(C[C@@H](NC(=O)[C@H](N)Cc2ccccc2)C(=O)N[C@H](CC(C)C)C(=O)N[C@H](CCCCN)C(=O)N2CCC(N)(C(=O)NCC(=O)NCC(=O)NCC(=O)NCC(=O)N[C@H](CCCCN)C(N)=O)CC2)cc1 [Compound 61] (H-[Api]([dK-dL-X12])GGGG[dK]-NH2; N-terminus assumed)")
"860.1%"
>>> reading("CC(C)C[C@@H](NC(=O)[C@@H](Cc1ccc(OCC(F)(F)F)cc1)NC(=O)[C@H](N)Cc1ccccc1)C(=O)N[C@H](CCCCN)C(=O)N1CCC(N)(C(=O)N[C@H](CCCCN)C(N)=O)CC1 [Compound 95] (H-[dF][dY](Trifluoroethyl)[dL][dK]-X1; N-terminus assumed)")
"1202.4%"
>>> reading("CCOc1ccc(C[C@@H](NC(=O)[C@H](N)Cc2ccccc2)C(=O)N[C@H](CC(C)C)C(=O)N[C@H](CCCCN)C(=O)N2CCC(N)(C(=O)N[C@@H](CCCCN)C(N)=O)CC2)cc1 [Compound 3] (H-[dF][dY](Et)[dL][dK]-X6; N-terminus assumed)")
"1541.1%"
>>> reading("CCOc1ccc(C[C@@H](NC(=O)[C@H](N)Cc2ccccc2)C(=O)N[C@H](CC(C)C)C(=O)N[C@H](CCCCN)C(=O)N2CCC(N)(C(N)=O)CC2)cc1 [Compound 1] (H-[dF][dY](Et)[dL][dK]-{Piperidinyl(4-NH2,4-CONH2)}; N-terminus assumed)")
"524.8%"
